Test system: Mucor circinelloides
Assay: Antimicrobial activity against Mucor circinelloides after 24 hrs by broth microdilution checkerboard procedure
Format: functional
Form field: MIC (one value per entry).
The reply should be a number in mg/L, with the unit left off.

| Compound | MIC [mg/L] |
| --- | --- |
| CCC(C)n1ncn(-c2ccc(N3CCN(c4ccc(OCC5COC(Cn6cncn6)(c6ccc(Cl)cc6Cl)O5)cc4)CC3)cc2)c1=O (stereo unspecified) | 0.62 |

Data request: Report MIC for `CC[C@@H]([C@H](C)O)n1ncn(-c2ccc(N3CCN(c4ccc(OC[C@@H]5CO[C@@](Cn6cncn6)(c6ccc(F)cc6F)C5)cc4)CC3)cc2)c1=O`
Data returned: 0.57

Data request: Give MIC for `C[C@@H]1[C@H](O)[C@@H](C)/C=C/C=C/C=C/C=C/C=C/C=C/C=C/[C@H](O[C@@H]2O[C@H](C)[C@@H](O)[C@H](N)[C@@H]2O)C[C@@H]2O[C@](O)(C[C@@H](O)C[C@@H](O)[C@H](O)CC[C@@H](O)C[C@@H](O)CC(=O)O[C@H]1C)C[C@H](O)[C@H]2C(=O)O`
Data returned: 0.125

Data request: Retrieve MIC measured for `C[C@@H](c1nc(-c2ccc(C#N)cc2)cs1)[C@](O)(Cn1cncn1)c1ccc(F)cc1F` and print it.
Data returned: 0.44
